System: portions of intestine turned inside out
experimental protocol: absorption by portions of intestine turned inside out
Type: in vitro ADME
reported conditions: 37° C., Krebs Ringer, external concentration 10^-4 M; H2 SO4 salts, m 0 or 1, n 3
Grouping rule (PRODUCT ABSORPTION intestine inside out): bottom bin: < 0.03 nmoles/h/mg tissue; middle bin: ≥ 0.03 nmoles/h/mg tissue and < 0.04 nmoles/h/mg tissue; top bin: ≥ 0.04 nmoles/h/mg tissue

{"columns": ["compound", "assigned class"],
 "data": [
  ["COC(=O)[C@@H](N)CC[S+](C)C[C@H]1O[C@@H](n2cnc3c(N)ncnc32)[C@H](O)[C@@H]1O (some centres unmarked) [CH3, SAM methyl ester]", "top bin"]
]}

Assign a category based on measured PRODUCT ABSORPTION intestine inside out for CC(=O)O[C@@H]1[C@H](OC(C)=O)[C@@H](C[S+](C)CC[C@H](NC(=O)CCC(=O)O)C(=O)[O-])O[C@H]1n1cnc2c(N)ncnc21 (some centres unmarked) [H Succinyl COCH3, SAM succinyl-diacetyl] and give only the class name.
middle bin

Also CCCCOC(=O)[C@@H](N)CC[S+](C)C[C@H]1O[C@@H](n2cnc3c(N)ncnc32)[C@H](O)[C@@H]1O (some centres unmarked) [C4 H9, SAM n-butyl ester] ?
middle bin

Also CCCCCCOC(=O)[C@@H](N)CC[S+](C)C[C@H]1O[C@@H](n2cnc3c(N)ncnc32)[C@H](O)[C@@H]1O (some centres unmarked) [C6 H13 H H, SAM n-hexyl ester] ?
bottom bin

Also CCOC(=O)[C@@H](N)CC[S+](C)C[C@H]1O[C@@H](n2cnc3c(N)ncnc32)[C@H](O)[C@@H]1O (some centres unmarked) [C2 H5, SAM ethyl ester] ?
top bin
